Here's a roundup of pIC50 values tested on Matrix metalloproteinase-14 (Homo sapiens, UniProt P50281), taken from various published works.
pIC50: −log10 of the molar value.

Query: Could you tell me which pIC50 is on file for COCc1ccccc1NCc1ccc([C@@H]2[C@H](O)CCCc3cncn32)c(-c2ccccc2Cl)c1 ?
Response: 4.96

Query: Entry COc1cc(OC)nc(SCc2nnc(SCC(=O)NO)n2-c2ccc(N(C)C)cc2)n1 : reported pIC50 = ?
Response: < 4.00

Query: Given the entry NCCCCCC(=O)N1C[C@H](NS(=O)(=O)c2ccc(Oc3ccccc3)cc2)[C@@H](O)C1 (relative stereo) , report its measured pIC50.
Response: < 3.70

Query: Tell me the measured pIC50 of COCc1ccccc1NCc1ccc([C@H]2[C@@H](O)CCCc3cncn32)c(-c2ccccc2Cl)c1 , please.
Response: 4.81

Query: Record request: pIC50 value, item COc1ccccc1C(=O)NNC(=O)CCC(=O)NO
Response: < 5.00

# next compound below
Query: Given O=C(CCC(=O)NNC(=O)c1cccc([N+](=O)[O-])c1)NO , state its recorded pIC50.
Response: < 5.00
